The origin of these recorded values is ChEMBL document CHEMBL2331081.

// reported IC50 per item
Test system: PANC-1
experiment: CYtotoxicity against human PANC1 cells by MTS assay
Assay type: functional, cell-based

Look over these answered cases.
• O=C(Nc1ccc2c(c1)S(=O)(=O)C=C2)c1c2ccccc2nc2ccccc12 = > 10 µM
• O=C(Nc1nnc(-c2ccco2)o1)c1cc(Cl)ccc1O = > 10 µM
• C[C@H](NC(=O)c1cc(-c2ccccc2)nc2ccccc12)c1ccccc1 = > 10 µM
• O=C(Nc1ccc2c(c1)S(=O)(=O)C=C2)c1ccnc(-c2ccccc2)c1 = 3.35 µM

Lab note: need IC50 with PANC-1 for entry N#C/C(=C\c1cccc(Br)n1)C(=O)Nc1ccc2c(c1)S(=O)(=O)C=C2 , please look it up. 1.64 µM

Next up: O=C(Nc1ccc2c(c1)S(=O)(=O)C=C2)c1cc(-c2ccccc2)nc(-c2ccccc2)c1 0.31 µM

O=C(Nc1ccc2c(c1)S(=O)(=O)C=C2)c1cc(Cl)ccc1O ? 2.34 µM

Query O=C(Nc1ccc2c(c1)S(=O)(=O)C=C2)c1cc(-c2ccccc2)nc2ccccc12 next 0.26 µM

Entry C[C@H](NC(=O)c1cc(Cl)ccc1O)c1ccccc1 please 8.44 µM

Cool, now O=C(Nc1ccc2c(c1)S(=O)(=O)C=C2)c1ccnc2ccccc12 7.92 µM
